Hello, the source for this data is patent US10494337B2, in case you need it.

- STUDY SYSTEM: full-length recombinant rat vitamin D receptor (Rattus norvegicus)
- ASSAY NAME: Competitive VDR binding
REPORTED ENDPOINT: pKi
Remember the convention: pKi equals -log10 of concentration in molar.

Consider the compound C[C@H](CCC(F)(F)C(C)(C)O)C1CCC2/C(=C/C=C3C[C@@H](O)C[C@H](O)C3)CCC[C@@]21C (some centres unmarked) and give its measured pKi.
10.70

// same read-out, input: C=C1[C@H](O)CC(=C/C=C2\CCC[C@@]3(C)C2CCC3[C@@H](C)CCCC(C)(C)O)C[C@H]1O (some centres unmarked) [Compound 2, reference compound]
10.52

// same read-out, input: C=C1[C@H](O)CC(=C/C=C2\CCC[C@@]3(C)C2CCC3[C@@H](C)CCC(F)(F)C(C)(C)O)C[C@H]1O (some centres unmarked)
10.52

// same read-out, input: C[C@@H](CCC(F)(F)C(C)(C)O)C1CCC2/C(=C/C=C3C[C@@H](O)C[C@H](O)C3)CCC[C@@]21C (some centres unmarked)
10.52

// same read-out, input: C=C1[C@H](O)CC(=C/C=C2\CCC[C@@]3(C)C2CCC3[C@H](C)CCC(F)(F)C(C)(C)O)C[C@H]1O (some centres unmarked)
10.40

###

- STUDY SYSTEM: full-length recombinant rat vitamin D receptor (Rattus norvegicus)
- Sequence (P13053 1-423): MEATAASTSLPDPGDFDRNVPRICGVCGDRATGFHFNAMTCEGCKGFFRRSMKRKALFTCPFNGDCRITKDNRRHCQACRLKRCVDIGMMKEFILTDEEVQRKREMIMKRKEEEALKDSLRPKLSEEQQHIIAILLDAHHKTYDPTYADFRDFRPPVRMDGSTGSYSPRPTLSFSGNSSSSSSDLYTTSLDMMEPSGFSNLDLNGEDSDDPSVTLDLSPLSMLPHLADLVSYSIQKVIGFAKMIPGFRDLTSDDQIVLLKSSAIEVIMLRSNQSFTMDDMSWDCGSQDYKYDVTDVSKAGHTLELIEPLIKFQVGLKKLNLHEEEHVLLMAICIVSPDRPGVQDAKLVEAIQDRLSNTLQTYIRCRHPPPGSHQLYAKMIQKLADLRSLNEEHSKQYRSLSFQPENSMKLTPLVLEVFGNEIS
- ASSAY NAME: Competitive VDR binding
- CONDITION SET: average ratio of the 1α,25-(OH)2D3 Ki to the Ki for the analogue
REPORTED ENDPOINT: VDR binding ratio
Would you mind answering with just the numeric figure?

>  <COMPOUND>
C[C@@H](CCC(F)(F)C(C)(C)O)C1CCC2/C(=C/C=C3C[C@@H](O)C[C@H](O)C3)CCC[C@@]21C (some centres unmarked) [Compound 6]

>  <VDR binding ratio>
1.3

$$$$
>  <COMPOUND>
C=C1[C@H](O)CC(=C/C=C2\CCC[C@@]3(C)C2CCC3[C@H](C)CCC(F)(F)C(C)(C)O)C[C@H]1O (some centres unmarked) [Compound 3]

>  <VDR binding ratio>
1

$$$$

Consider the compound C=C1[C@H](O)CC(=C/C=C2\CCC[C@@]3(C)C2CCC3[C@@H](C)CCC(F)(F)C(C)(C)O)C[C@H]1O (some centres unmarked) [Compound 4] and give its measured VDR binding ratio.
1.3

// same read-out, input: C[C@H](CCC(F)(F)C(C)(C)O)C1CCC2/C(=C/C=C3C[C@@H](O)C[C@H](O)C3)CCC[C@@]21C (some centres unmarked) [Compound 5]
2

// same read-out, input: C=C1[C@H](O)CC(=C/C=C2\CCC[C@@]3(C)C2CCC3[C@@H](C)CCCC(C)(C)O)C[C@H]1O (some centres unmarked) [Compound 2, reference compound]
1.3
